The reported measurements were obtained from ChEMBL document CHEMBL1135637.

- test_details: Effective concentration to activate gammadelta T cells
- Format: functional, cell-based
- test_conditions: t-cell
pEC50: −log10 of the molar value.
Quick rule: pEC50 of at least 4 means True, below that means False.

| compound | answer_label |
| --- | --- |
| C=CCOP(=O)(O)O | False |
| CCCCCN(C)CCC(O)(P(=O)(O)O)P(=O)(O)O | True |
| CCC(=O)CCOP(=O)(O)OP(=O)(O)O | True |
| CC(O)(CO)CCOP(=O)(O)OP(=O)(O)O (stereo not given) | True |
| CCC(=O)COP(=O)(O)OP(=O)(O)O | True |
| CC(O)(CI)CCOP(=O)(O)OP(=O)(O)O (stereo not given) [IODOHYDRIN PYROPHOSPHATE] | True |
| CC(C)OP(=O)(O)O | False |
| C/C=C\COP(=O)(O)O | False |
| CC(=O)C(C)COP(=O)(O)OP(=O)(O)O (stereo not given) | True |
| CC(OP(=O)(O)O)C(=O)O (stereo not given) | False |
| CCOP(=O)(OCC)OP(=O)(OCC)OCC [ETHYL PYROPHOSPHATE] | True |
| CC(=O)CCCOP(=O)(O)OP(=O)(O)O | True |
| CC(O)(CI)CCOP(=O)(O)OP(=O)(O)OP(=O)(O)OCCC(C)(O)CI (stereo not given) | True |
| CC(C)=CCOP(=O)(O)O | False |
| O=P(O)(O)OCCO | False |
| O=P(O)(O)OCC(O)CO (stereo not given) | False |
| COP(=O)(O)O | False |
| C[C@@]1(CCOP(=O)(O)OP(=O)(O)O)CO1 | True |
| CC(O)(CBr)CCOP(=O)(O)OP(=O)(O)OP(=O)(O)O (stereo not given) [BROMOHYDRIN TRIPHOSPHATE] | True |
| CCC(C)OP(=O)(O)O (stereo not given) | False |
| CC(O)(CBr)CCOP(=O)(O)OP(=O)(O)O (stereo not given) [BROMOHYDRIN PYROPHOSPHATE] | True |
| CCCOP(=O)(O)O [PROPYL PHOSPHATE] | False |
| CC(O)(CBr)CCOP(=O)(O)OP(=O)(O)OP(=O)(O)OCC(C)(O)CBr (stereo not given) | True |
| CC(COP(=O)(O)OP(=O)(O)O)C(C)(O)CI (stereo not given) | True |
| C/C=C\COP(=O)(O)OP(=O)(O)O [CROTYL PYROPHOSPHATE] | True |

* * *

- test_details: Effective concentration to activate gammadelta T cells
- Assay type: functional, cell-based
- test_conditions: t-cell
Classes (EC50): lowest: < 3 µM; middle: ≥ 3 µM and < 200 µM; highest: ≥ 200 µM

| compound | answer_label |
| --- | --- |
| CC(=O)CCOP(=O)(O)OP(=O)(O)O | middle |
| O=C(O)C(COP(=O)(O)O)OP(=O)(O)O (stereo not given) | highest |
| CC(O)(CI)CCOP(=O)(O)OP(=O)(O)OP(=O)(O)O (stereo not given) [IODOHYDRIN TRIPHOSPHATE] | lowest |
| C=C(C)CCOP(=O)(O)O [ISOPENTENYL PHOSPHATE] | middle |
| C=CCOP(=O)(O)OP(=O)(O)O [ALLYL PYROPHOSPHATE] | middle |
| NCCCC(O)(P(=O)(O)O)P(=O)(O)O | lowest |
| CC(O)(CCl)CCOP(=O)(O)OP(=O)(O)O (stereo not given) [CHLOROHYDRIN PYROPHOSPHATE] | lowest |
| O=C(O)COP(=O)(O)O | highest |
| NCCC(O)(P(=O)(O)O)P(=O)(O)O | middle |
| O=P(O)(O)O[C@@H]1OC[C@@H](O)[C@H](O)[C@H]1O | highest |
